STUDY SYSTEM: CDK2 (Homo sapiens)
Construct: endogenous in cells; host or cells: MDA-MB-231
ASSAY COMMENT: CDK protein degradation activity (Western blotting), CDK2
Format: cell-based
MEASUREMENT SETUP: MDA-MB-231 cells, 1 μM, 16 hours, Western blot
label 1 if Enzyme degradation CDK2 (% remaining) @ 1 μM is below 50%. label 0 if not; exact matches included in label 0.

COMPOUND	GROUP
Cc1cccc(C(=O)N[C@H]2C[C@@H](n3cnc4c(NCc5cccc(N6CCN(CC7CCN(C(=O)COc8cccc9c8C(=O)N(C8CCC(=O)NC8=O)C9=O)CC7)CC6)c5)ncnc43)C2)n1 (stereo partly shown)	label 1
CC(=O)N[C@H]1C[C@@H](n2cnc3c(NCC4CCN(CC5CCN(C(=O)CNc6ccc7c(c6)C(=O)N([C@H]6CCC(=O)NC6=O)C7=O)CC5)CC4)ncnc32)C1	label 0
O=C1CC[C@H](N2C(=O)c3ccc(NCC(=O)N4CCC(CC(=O)N5CCN(c6ccc(Nc7ncnc8c7ncn8C7CC(NC(=O)Cc8ccccc8)C7)cc6)CC5)CC4)cc3C2=O)C(=O)N1 (stereo partly shown)	label 0
O=C1CC[C@H](N2C(=O)c3ccc(NCC(=O)N4CCC(CN5CCN(c6ccc(Nc7ncnc8c7ncn8C7CC(NC(=O)Cc8ccccc8)C7)cc6)CC5)CC4)cc3C2=O)C(=O)N1 (stereo partly shown)	label 1
O=C1CC[C@@H](c2ccc(OCC(=O)N3CCC(CN4CCN(c5ccc(Nc6ncnc7c6ncn7C6CC(NC(=O)Cc7ccccc7)C6)cc5)CC4)CC3)cc2)C(=O)N1 (stereo partly shown)	label 1

Data request: Is Enzyme degradation CDK2 (% remaining) @ 1 μM strictly under 50% for the entry O=C1CC[C@H](n2nnc3ccc(N4CCC(CCN5CCN(c6ccc(Nc7ncnc8c7ncn8C7CC(NC(=O)Cc8ccccc8)C7)cc6)CC5)CC4)cc3c2=O)C(=O)N1 (stereo partly shown) ?
Data returned: label 0

Data request: Is Enzyme degradation CDK2 (% remaining) @ 1 μM strictly under 50% for the entry O=C1CC[C@H](N2C(=O)c3ccc(N4CCC(CN5CCN(c6ccc(Nc7ncnc8c7ncn8C7CC(NC(=O)c8c(Cl)cccc8Cl)C7)cc6)CC5)CC4)cc3C2=O)C(=O)N1 (stereo partly shown) ?
Data returned: label 1
